Reference for the values: PubChem BioAssay (NCI)

# System: MDA-MB-435
# assay.summary: NCI tumour cell line growth inhibition, 48 h
property.label: TGI

Below, 5 compounds whose answers are already recorded.
C[C@@H](NC(=O)c1ccc(CNC(=O)/C=C/c2cccc(Oc3ccccc3)c2)cc1)c1ccccc1
> 100 µM
O=c1cn[nH]c(=S)n1/N=C/c1c[nH]c2ccccc12
> 100 µM
COc1ccc(C2C=C(c3ccc4c(c3)OCO4)Oc3c2c(=O)oc2ccccc32)cc1OC (stereo not given)
0.529 µM
Cn1c(=O)c(Oc2ccc(F)cc2F)cc2cnc(NC3CCS(=O)(=O)CC3)nc21
> 25 µM
NC12CCC(CC1=O)C2 (stereo not given)
> 100 µM

## Task Lookup: TGI / MDA-MB-435 / CC(OC(=O)C(CC(=O)OC(C)(C)C)NC(=O)OC(C)(C)C)C(=O)OCc1ccccc1 (stereo not given)
## Result > 100 µM

## Task Lookup: TGI / MDA-MB-435 / COc1cc2c(cc1OC)C(=O)/C(=C/c1cc(OC)c(OC)c(OC)c1)C2
## Result > 100 µM

## Task Lookup: TGI / MDA-MB-435 / Cc1cc(N(CCCl)CCCl)ccc1C=Nc1ccc2ccccc2c1
## Result > 100 µM

## Task Lookup: TGI / MDA-MB-435 / COc1ccc(C2=NN(C(=O)c3cc(OC)c(OC)c(OC)c3)C(c3ccc(N(C)C)cc3)C2)cc1 (stereo not given)
## Result 0.478 µM

## Task Lookup: TGI / MDA-MB-435 / CCOC(=O)c1c2c(c(O)c3ccccc3c(O)n(Cc3ccccc3)c1C)C(=O)C=CC2=O
## Result > 100 µM
